# measurementNotes: qHTS Assay for Lipid Storage Modulators (AID 1519)
# protocolConditions: Drosophila S3 cells, BODIPY lipid droplet/cell ratio, laser cytometry; measured here: cell count channel max response; cells loaded with oleic acid
Results filed as inconclusive are left out.
metric: max response (%)

>>> numericvalue("Cc1noc(C)c1-c1ccc2ncnc(NC3CCNCC3)c2c1")
3.61
>>> numericvalue("Clc1ccccc1-c1ccc2ncnc(N3CCNCC3)c2c1")
26.7
>>> numericvalue("CS(=O)(=O)N1CCC2(CCCN(c3ccccn3)C2)CC1")
5.95
>>> numericvalue("O=c1c(-c2cc(F)cc(F)c2)nc2cnc(N3CCOCC3)nc2n1Cc1cccs1")
18.1
>>> numericvalue("Cc1nc2cnc(N(C)C)nc2n(Cc2ccc(F)cc2)c1=O")
15
>>> numericvalue("CC(=O)N1CCC[C@@]2(CCN(c3ccncc3)C2)C1")
8.59
>>> numericvalue("CN1CCN(c2ncnc3ccc(-c4ccccc4Cl)cc23)CC1")
10.9
>>> numericvalue("COCCn1c(=O)c(C)nc2cnc(N(C)C)nc21")
17.2
>>> numericvalue("Cc1noc(C)c1-c1cc(NCc2cccnc2)ncn1")
5.59
